# ASSAY: in vitro
# CONDITION_SUMMARY: male, Wistar, Escherichia coli (indicator bacteria); rat (liver fraction)

{"columns": ["SMILES_INPUT", "viability [%]"],
 "data": [
  ["COc1cc2c(c3oc4cccc(O)c4c(=O)c13)[C@@H]1C=CO[C@@H]1O2", 0.5]
]}
